target: T1, endogenous human PSMA (prostate-specific membrane antigen) expressed on LNCaP human prostate cancer cells (human, UniProt Q04609 1-750); assay: flow cytometry on LNCaP cells
T1 construct: whole, on cells; also called PSMA-expressing LNCaP cells
T1 sequence (Q04609 whole entry): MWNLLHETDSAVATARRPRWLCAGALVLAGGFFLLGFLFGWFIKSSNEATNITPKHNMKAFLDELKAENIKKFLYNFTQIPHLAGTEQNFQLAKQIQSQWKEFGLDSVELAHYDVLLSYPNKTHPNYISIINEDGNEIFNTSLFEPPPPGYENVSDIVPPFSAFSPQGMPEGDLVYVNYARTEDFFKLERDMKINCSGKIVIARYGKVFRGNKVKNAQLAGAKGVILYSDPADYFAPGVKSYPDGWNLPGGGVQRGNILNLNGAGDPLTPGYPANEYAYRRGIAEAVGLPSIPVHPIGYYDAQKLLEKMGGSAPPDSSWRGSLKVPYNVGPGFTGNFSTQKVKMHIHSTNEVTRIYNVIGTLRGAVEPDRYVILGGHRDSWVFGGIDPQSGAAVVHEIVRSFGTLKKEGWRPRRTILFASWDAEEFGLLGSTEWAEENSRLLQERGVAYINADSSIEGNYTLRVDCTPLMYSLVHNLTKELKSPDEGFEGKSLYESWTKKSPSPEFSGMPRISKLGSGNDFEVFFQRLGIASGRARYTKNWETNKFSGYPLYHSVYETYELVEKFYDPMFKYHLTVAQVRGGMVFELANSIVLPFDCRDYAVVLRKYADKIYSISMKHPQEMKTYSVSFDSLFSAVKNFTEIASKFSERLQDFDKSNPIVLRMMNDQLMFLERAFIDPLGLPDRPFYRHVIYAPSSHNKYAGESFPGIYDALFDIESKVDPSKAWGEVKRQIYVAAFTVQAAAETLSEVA
MEASUREMENT_KIND: EC50 (nM)
# output: bare number, implied unit nM

// below: answered binders
Query: EC50; subject: anti-PSMA antibody PSGD3 (antibody, V domains shown, Fully human IgG) VH: QVQLVQSGGGLVQPGGSLRLSCAASGFTFSSYWMSWVRQAPGKGLEWVANIKQDGSEKYYVDSVKGRFTISRDNAKNSLYLQMNSLRAEDTAVYYCARVWDYYYDSSGDAFDIWGQGTMVTVSS VL: DIVMTQSPSSVSASVGDRVTITCRASQDINNWLAWYQQKAGKAPKLLIYVATKLQNGVPSRFSGSGSGTDFTLSISNLQPEDFATYYCQQAKSFPYTFGQGTKLEIK
3.15

Param item: anti-PSMA antibody PSGC12 (antibody, V domains shown, Fully human IgG) VH: QVQLVQSGGGLVQPGGSLRLSCAASGFTFSSYWMSWVRQAPGKGLEWVANIKQDGSEKYYVDSVKGRFTISRDNAKNSLYLQMNSLRAEDTAVYYCARVWDYYYDSSGDAFDIWGQGTMVTVSS VL: DIVMTQSPSSVSASVGDRVTITCRASQDVGTWLAWYQQKPGRAPKLLIYVASSLQSGVPSRFSGSGSGTDFTLTISSLQPEDSATYYCQQAKGIPYTFGQGTKLEIK
2.84

Param item: anti-PSMA antibody PSGC8 (antibody, V domains shown, Fully human IgG) VH: QVQLVQSGGGLVQPGGSLRLSCAASGFTFSSYWMSWVRQAPGKGLEWVANIKQDGSEKYYVDSVKGRFTISRDNAKNSLYLQMNSLRAEDTAVYYCARVWDYYYDSSGDAFDIWGQGTMVTVSS VL: AIRMTQSPSSVSASVGDRVTITCRASQGISSWLAWYQQKPGKAPKLLIYAASSLQSGVPSRFSGSGSGTDFTLTISSLKPEDFATYYCQQANSFPRALTFGGGTKVEIK
3.84

Param item: anti-PSMA antibody PSGC9 (antibody, V domains shown, Fully human IgG) VH: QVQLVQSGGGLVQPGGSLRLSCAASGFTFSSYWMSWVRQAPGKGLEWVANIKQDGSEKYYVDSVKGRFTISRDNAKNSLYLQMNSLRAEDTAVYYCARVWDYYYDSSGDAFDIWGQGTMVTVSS VL: AIRMTQSPSTLSASVGDRVTITCRASQNIYGWLAWYQQKPGKAPELLIYAASSLQSGVPSRFSGSGSGTDFTLTINSLQPEDFATYYCQQSYTIPFTFGPGTKVDIK
2.05

Switching to the query record.
Query: EC50; subject: anti-PSMA antibody PSGD6 (antibody, V domains shown, Fully human IgG) VH: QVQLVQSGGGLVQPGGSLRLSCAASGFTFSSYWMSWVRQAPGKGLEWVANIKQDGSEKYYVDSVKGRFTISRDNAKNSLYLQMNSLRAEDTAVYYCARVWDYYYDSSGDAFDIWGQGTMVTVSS VL: DIVMTQSPSSVSASVGDRVTITCRASQAISSWLAWYQQKPGKAPKLLIYAASSLQSGVPSRFSGSGSGTDFTLTISSLQPEDFATYYCQQAYSFPVTFGPGTKVDIK
1.92
